test system: SNB-75 CNS; experiment: NCI-60 one-dose screen, 48 h; conditions: 10 µM
Compounds without any hit were thinned out: in the full panel of roughly 83,000, 20% have a hit. Calls of active or inactive are those of the source. How the source made its calls: active means growth percent below 10; inactive means the rest.
Outcomes: class 1 = active, class 0 = inactive

- molecule: "CCOC(=O)C1=CSC2=NC3=C(CCC/C3=C\\c3cc(OC)c(OC)c(OC)c3)C(c3cc(OC)c(OC)c(OC)c3)N12 (stereo unspecified)"
  label: "class 0"
- molecule: "COc1cc2cc(Oc3ccc(NC(=O)c4cc(C(F)(F)F)cc(C(F)(F)F)c4)cc3)c(C)nc2cc1OC"
  label: "class 0"
- molecule: "COc1ccc(NC(=O)C2CC3C=CC2C3)c([N+](=O)[O-])c1 (stereo unspecified)"
  label: "class 0"
- molecule: "CCN(CC)CCCOc1cccc2c1C(=O)c1cccc(OCCCN(CC)CC)c1C2=O"
  label: "class 0"
- molecule: "CN(C)CCCN1c2ccccc2CCc2ccc(Cl)cc21"
  label: "class 0"
- molecule: "O=C1/C=C/[C@@H](O)[C@@H]2C[C@@H](O)C[C@H]2/C=C/CCC[C@@H](C(F)(F)F)O1"
  label: "class 0"
- molecule: "O=c1cn[nH]c2ccc(Br)cc12"
  label: "class 0"
- molecule: "Cc1cccc(N=Cc2ccccc2O)c1C"
  label: "class 0"
- molecule: "CC(C1=C(CN(C(=O)Cc2cn(-c3ccccc3)nc2-c2ccc(Cl)cc2)C(C)C)Cc2ccccc21)c1ccccn1 (stereo unspecified)"
  label: "class 0"
- molecule: "Nc1ncc(-c2cnn(C3CCNCC3)c2)cc1-c1nc2ccccc2o1"
  label: "class 0"
- molecule: "O=C(O)c1ccc(-n2cc(CNc3ccc(Oc4ccccc4)cc3)c(-c3ccccc3)n2)cc1"
  label: "class 0"
- molecule: "CCOC(=O)c1cc(C(=O)c2cc(OC)c(OC)c(OC)c2)n2c1ccc1c3cccnc3ccc12"
  label: "class 0"
- molecule: "CC1C(=NC(=O)c2cnccn2)C(C)C(c2ccc(Cl)cc2)NC1c1ccncc1 (stereo unspecified)"
  label: "class 0"
- molecule: "CCc1ccc(C2=NN(c3ccc(S(C)(=O)=O)cc3)C(=O)CC2)cc1"
  label: "class 0"
- molecule: "O=C(Nc1nc(-c2ccccc2)nc2c1sc(=S)n2-c1ccccc1)C(F)(F)F"
  label: "class 0"
- molecule: "O=C(CCCSc1nc(-c2ccccc2)cc(-c2ccc(Cl)cc2)n1)NO"
  label: "class 1"
- molecule: "CC(=O)Nc1ccc(S(=O)(=O)N/N=C(\\C)c2ccc(C)cc2C)cc1"
  label: "class 0"
- molecule: "COc1ccc(-c2cc(-c3ccc(OC)c(OC)c3)nc(SCCCC(=O)NO)n2)cc1"
  label: "class 1"
- molecule: "O=C1CSC(=S)N1/N=C/c1ccc(Cl)s1"
  label: "class 0"
- molecule: "CC(C)(C)c1ccc(S(=O)(=O)N[C@H]2CC[C@H]3[C@@H]4CCc5cc(OS(=O)(=O)O)ccc5[C@H]4CC[C@]23C)cc1"
  label: "class 0"
- molecule: "COc1cc(/C=C2\\CCCC3=C2N=C2SC(C)=CN2C3c2cc(OC)c(OC)c(OC)c2)cc(OC)c1OC (stereo unspecified)"
  label: "class 0"
- molecule: "S=C(NCc1ccccc1)NCc1ccccc1"
  label: "class 0"
- molecule: "CCOC(=O)/C(=C(\\C)N)C1CC(=O)NC1=O (stereo unspecified)"
  label: "class 0"
- molecule: "CCCCC(CC)CN=C(N)NC(N)=NCCCCCCN=C(N)NC(N)=NCC(CC)CCCC (stereo unspecified)"
  label: "class 1"
- molecule: "COc1cc(C(=O)n2nc(-c3cc(OC)c(OC)c(OC)c3)nc2N)cc(OC)c1OC"
  label: "class 0"
- molecule: "CCOC(=O)C(C)(c1ccccc1)c1ccccc1"
  label: "class 0"
- molecule: "Cn1cnc([N+](=O)[O-])c1/C=C1\\Oc2ccc(Br)cc2C1=O"
  label: "class 0"
- molecule: "CCc1ccc(-c2ccc(-n3nc(C)c4c(N)nc(Cc5ccccc5)nc43)cc2)cc1"
  label: "class 0"
- molecule: "COc1cccc(C2C(C#N)=C(N)Oc3cc(N)ccc32)c1 (stereo unspecified)"
  label: "class 1"
- molecule: "COc1cc(-c2nn(-c3cccc(NC(=O)NCCNC(=O)c4ccccc4)c3)cc2-c2ccncc2)ccc1Cl"
  label: "class 0"
- molecule: "COc1ccc(Cc2cnc(N)nc2N)cc1OC"
  label: "class 0"
- molecule: "C=CCn1c(SCC(=O)Nc2ccc(C(=O)/C=C/c3ccc(OC)cc3)cc2)nnc1-c1ccc(OC)c(OC)c1"
  label: "class 0"
- molecule: "CCCc1cn(CC(=O)Nc2nc3ccccc3s2)nn1"
  label: "class 0"
- molecule: "COC(=O)c1cc2oc(/C=C3/SC(=S)N(N)C3=O)cc2n1Cc1ccccc1"
  label: "class 0"
- molecule: "Nc1ccc(/C=N/Nc2ccnc3c(O)cccc23)c2cccnc12"
  label: "class 0"
- molecule: "COc1cc2c(cc1NC(=O)C(F)(F)F)-c1ccc(NC(=O)C(F)(F)F)cc1C2"
  label: "class 1"
- molecule: "O=S(=O)(Oc1ccc(-c2ccc3sccc3c2)cc1)c1ccc(F)cc1"
  label: "class 0"
- molecule: "O=C(Nc1ccc(F)cc1)c1cc2ccccc2cc1O"
  label: "class 0"
- molecule: "CS(=O)(=O)c1nccc(-c2c(-c3cccc(OCc4ccccc4)c3)nc3sccn23)n1"
  label: "class 0"
- molecule: "COc1ccc(C2CC(c3cccs3)=NN2c2ccc(S(N)(=O)=O)cc2)cc1 (stereo unspecified)"
  label: "class 0"
- molecule: "COc1ccc2nc3cc(Cl)ccc3c(NCCCNCCO)c2c1"
  label: "class 1"

Sourced from PubChem BioAssay (NCI)
